These entries and their values trace back to patent US9605003B2.

PI3Kα (Homo sapiens, UniProt P42336): reported IC50 for various compounds.
Sequence (P42336 whole entry): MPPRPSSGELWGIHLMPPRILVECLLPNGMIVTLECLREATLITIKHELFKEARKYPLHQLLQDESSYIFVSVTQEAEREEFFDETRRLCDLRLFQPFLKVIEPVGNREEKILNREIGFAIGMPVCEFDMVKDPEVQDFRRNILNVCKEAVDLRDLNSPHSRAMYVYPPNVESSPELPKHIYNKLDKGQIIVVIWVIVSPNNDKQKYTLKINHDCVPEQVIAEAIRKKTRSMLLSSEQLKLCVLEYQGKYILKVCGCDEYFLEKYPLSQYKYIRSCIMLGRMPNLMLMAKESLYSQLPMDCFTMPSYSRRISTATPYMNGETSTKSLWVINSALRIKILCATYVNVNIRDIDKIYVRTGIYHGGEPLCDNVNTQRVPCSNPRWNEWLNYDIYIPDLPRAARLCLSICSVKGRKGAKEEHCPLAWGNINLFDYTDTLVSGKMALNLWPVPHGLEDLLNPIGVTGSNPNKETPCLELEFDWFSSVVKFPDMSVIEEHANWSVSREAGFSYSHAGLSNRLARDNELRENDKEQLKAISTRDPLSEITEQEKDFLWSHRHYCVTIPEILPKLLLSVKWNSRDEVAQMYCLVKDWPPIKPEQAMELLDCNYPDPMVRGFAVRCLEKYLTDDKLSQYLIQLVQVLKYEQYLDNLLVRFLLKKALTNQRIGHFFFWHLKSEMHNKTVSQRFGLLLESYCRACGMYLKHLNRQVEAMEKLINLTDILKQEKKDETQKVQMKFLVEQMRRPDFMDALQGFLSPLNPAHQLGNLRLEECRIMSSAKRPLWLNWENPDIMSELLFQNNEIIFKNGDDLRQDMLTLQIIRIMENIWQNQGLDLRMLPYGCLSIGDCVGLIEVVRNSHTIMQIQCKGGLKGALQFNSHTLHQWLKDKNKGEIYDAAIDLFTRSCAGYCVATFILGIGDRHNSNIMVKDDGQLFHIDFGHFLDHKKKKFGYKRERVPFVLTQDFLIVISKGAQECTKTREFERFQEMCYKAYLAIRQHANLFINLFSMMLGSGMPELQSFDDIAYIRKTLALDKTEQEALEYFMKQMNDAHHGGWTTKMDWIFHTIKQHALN
Sequence (P27986 whole entry partner): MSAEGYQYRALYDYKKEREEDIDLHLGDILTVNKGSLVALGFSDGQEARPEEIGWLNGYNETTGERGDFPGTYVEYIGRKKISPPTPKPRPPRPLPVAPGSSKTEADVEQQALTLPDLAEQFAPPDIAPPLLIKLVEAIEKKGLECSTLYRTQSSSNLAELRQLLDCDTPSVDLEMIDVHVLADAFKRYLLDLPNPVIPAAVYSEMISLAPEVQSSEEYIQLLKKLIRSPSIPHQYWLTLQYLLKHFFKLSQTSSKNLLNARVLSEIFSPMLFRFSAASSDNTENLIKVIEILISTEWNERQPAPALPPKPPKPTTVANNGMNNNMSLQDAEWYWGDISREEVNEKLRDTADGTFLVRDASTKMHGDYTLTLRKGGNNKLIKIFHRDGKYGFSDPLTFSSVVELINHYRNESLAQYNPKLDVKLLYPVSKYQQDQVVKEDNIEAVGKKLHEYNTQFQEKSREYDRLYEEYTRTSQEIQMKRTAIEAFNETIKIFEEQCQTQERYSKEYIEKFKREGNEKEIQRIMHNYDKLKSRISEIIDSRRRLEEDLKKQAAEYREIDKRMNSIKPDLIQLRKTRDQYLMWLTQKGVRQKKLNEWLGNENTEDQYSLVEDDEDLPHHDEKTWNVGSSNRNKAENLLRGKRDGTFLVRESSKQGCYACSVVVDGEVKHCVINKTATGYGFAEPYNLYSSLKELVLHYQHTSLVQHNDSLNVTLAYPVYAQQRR

Observe how each entry below is paired with its result.
Cc1ncc(-c2cccc3cc([C@H](C)Nc4ncnc5scnc45)n(C4CC4)c(=O)c23)cn1 | 1 to 10 µM
COc1ncc(-c2cccc3cc([C@H](C)Nc4ccnc5scnc45)n(-c4ccccc4)c(=O)c23)cn1 | 1 to 10 µM
CCCn1cc(-c2cccc3cc([C@H](C)Nc4ncnc5scnc45)n(-c4ccccc4)c(=O)c23)cn1 | 1 to 10 µM
CCCCc1cccc2cc([C@H](C)Nc3ncnc4scnc34)n(-c3ccccc3)c(=O)c12 | 1 to 10 µM

*Q* Give PI3Kα (Homo sapiens, UniProt P42336) IC50 for `COc1ccc(-c2cccc3cc([C@H](C)Nc4ncnc5scnc45)n(-c4ccccc4)c(=O)c23)cn1`
*A* 1 to 10 µM

*Q* Give PI3Kα (Homo sapiens, UniProt P42336) IC50 for `C[C@H](Nc1ncnc2scnc12)c1cc2cccc(-c3cnn(CCN4CCOCC4)c3)c2c(=O)n1-c1ccccc1`
*A* 1 to 10 µM

*Q* Give PI3Kα (Homo sapiens, UniProt P42336) IC50 for `C[C@H](Nc1ncnc2scnc12)c1cc2cccc(-c3ccc(F)c(F)c3)c2c(=O)n1-c1ccccc1`
*A* 1 to 10 µM

*Q* Give PI3Kα (Homo sapiens, UniProt P42336) IC50 for `CCn1cc(-c2cccc3cc([C@H](C)Nc4ncnc5scnc45)n(-c4ccccc4)c(=O)c23)cn1`
*A* 1 to 10 µM

*Q* Give PI3Kα (Homo sapiens, UniProt P42336) IC50 for `C[C@H](Nc1ncnc2scnc12)c1cc2cccc(/C=C/c3ccccc3)c2c(=O)n1-c1ccccc1`
*A* 1 to 10 µM

*Q* Give PI3Kα (Homo sapiens, UniProt P42336) IC50 for `COc1ncc(-c2cccc3cc([C@H](C)Nc4ncnc5scnc45)n(-c4ccccc4)c(=O)c23)cn1`
*A* 1 to 10 µM
